# ASSAY TARGET: Apelin receptor (Homo sapiens)
# TEST SUMMARY: APJ receptor agonists, beta-arrestin recruitment, SAR follow-up, cell-based, CHO-K1 AGTRL-1, PathHunter luminescence, set 3 (AID 492985)
MEASURE: EC50

CC1=CC(=O)C(C(C)C)=C/C1=N/OS(=O)(=O)c1ccc(C(C)C)cc1 | 5.56 µM
CC1=CC(=O)C(C(C)C)=C/C1=N/OS(=O)(=O)c1ccc(C#N)cc1 | 3.52 µM

Pending compound:
Data request: Could you please provide reported EC50 for CC1=CC(=O)C(C(C)C)=C/C1=N/OS(=O)(=O)c1ccc(F)cc1 ? Thanks!
Data returned: 7.15 µM
